Biological target: T1, human CD86-murine Ig fusion protein (human)
T1 construct: Bought (Ancell #509-820); also called hCD86-mIg
T1 chain: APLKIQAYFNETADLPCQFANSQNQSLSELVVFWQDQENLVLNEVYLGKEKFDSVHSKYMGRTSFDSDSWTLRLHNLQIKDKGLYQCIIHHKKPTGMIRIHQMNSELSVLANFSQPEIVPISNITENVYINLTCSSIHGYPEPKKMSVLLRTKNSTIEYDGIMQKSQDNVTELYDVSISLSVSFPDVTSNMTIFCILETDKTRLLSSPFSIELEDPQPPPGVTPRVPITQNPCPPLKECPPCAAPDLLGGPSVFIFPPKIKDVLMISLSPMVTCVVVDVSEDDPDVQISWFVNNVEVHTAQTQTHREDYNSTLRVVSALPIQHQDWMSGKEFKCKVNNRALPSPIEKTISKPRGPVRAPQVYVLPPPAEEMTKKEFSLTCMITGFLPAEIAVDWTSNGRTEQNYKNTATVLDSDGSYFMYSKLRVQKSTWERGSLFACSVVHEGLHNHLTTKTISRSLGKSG
Assay: SPR Biacore, hCD86-mIg captured
pKd: −log10 of the molar value.
ENDPOINT_NAME: pKd

Returns the measured pKd for the input binder. Input: D3-65-IgG2 (Fc fusion) MHVAQPAVVLASSRGIASFVCEYASPGKANEVRVTVLRQADSQVTEVCAMTYMKGNELTFLDDPSCTGTFSGNQVNLTIQGLRAMDTGLYICKVELMYPPPYYEGIGNGTQIYVIDPEPCPDSDERKCCVECPPCPAPPVAGPSVFLFPPKPKDTLMISRTPEVTCVVVDVSHEDPEVQFNWYVDGVEVHNAKTKPREEQFNSTFRVVSVLTVVHQDWLNGKEYKCKVSNKGLPAPIEKTISKTKGQPREPQVYTLPPSREEMTKNQVSLTCLVKGFYPSDIAVEWESNGQPENNYKTTPPMLDSDGSFFLYSKLTVDKSRWQQGNVFSCSVMHEALHNHYTQKSLSLSPG > 9.88

Returns the measured pKd for the input binder. Input: D3-34-IgG2 (Fc fusion) MHVAQPAVVLASSRGIASFVCEYASPGKANEVRVTVLRQADSQVTEVCAMTYMKGNELTFLDDPSCTGTFSGNQVNLTIQGLRAMDTGLYICKVELMYPPPYYLGIGNGTQIYVIDPEPCPDSDERKCCVECPPCPAPPVAGPSVFLFPPKPKDTLMISRTPEVTCVVVDVSHEDPEVQFNWYVDGVEVHNAKTKPREEQFNSTFRVVSVLTVVHQDWLNGKEYKCKVSNKGLPAPIEKTISKTKGQPREPQVYTLPPSREEMTKNQVSLTCLVKGFYPSDIAVEWESNGQPENNYKTTPPMLDSDGSFFLYSKLTVDKSRWQQGNVFSCSVMHEALHNHYTQKSLSLSPG 9.58 to 9.88

Returns the measured pKd for the input binder. Input: D20-IgG2 (Fc fusion) MHVAQPAVVLASSRGIASFVCEYESPHKATEIRVTVLRQADSQVTEVCAMTYMMEDELTFLDDPICTGTFSGNQVNLTIQGLRAMDTGLYICKVELMYPPPYYLGIGNGTQIYVIDPEPCPDSDERKCCVECPPCPAPPVAGPSVFLFPPKPKDTLMISRTPEVTCVVVDVSHEDPEVQFNWYVDGVEVHNAKTKPREEQFNSTFRVVSVLTVVHQDWLNGKEYKCKVSNKGLPAPIEKTISKTKGQPREPQVYTLPPSREEMTKNQVSLTCLVKGFYPSDIAVEWESNGQPENNYKTTPPMLDSDGSFFLYSKLTVDKSRWQQGNVFSCSVMHEALHNHYTQKSLSLSPG 9.58 to 9.88

Returns the measured pKd for the input binder. Input: D3-73-IgG2 (Fc fusion) MHVAQPAVVLASSRGIASFVCEYESPGKANEVRVTVLRQADSQVTEVCAMTYMKGNELTFLDDPICTGTFSGNQVNLTIQGLRAMDTGLYICKVELMYPPPYYEGIGNGTQIYVIDPEPCPDSDERKCCVECPPCPAPPVAGPSVFLFPPKPKDTLMISRTPEVTCVVVDVSHEDPEVQFNWYVDGVEVHNAKTKPREEQFNSTFRVVSVLTVVHQDWLNGKEYKCKVSNKGLPAPIEKTISKTKGQPREPQVYTLPPSREEMTKNQVSLTCLVKGFYPSDIAVEWESNGQPENNYKTTPPMLDSDGSFFLYSKLTVDKSRWQQGNVFSCSVMHEALHNHYTQKSLSLSPG > 9.88
